# key: entry, value: Decrease
Organism: Cavia porcellus
protocolNotes: Tested for the negative inotropic activity on isolated guinea pig left atrium at 10e-5 M
Format: functional, Cardiac atrium
endpoint: Decrease (%)

> print(dat)
                                   compound  datavalue
1  COc1ccc(C2Sc3ccccc3-n3c(CN(C)C)ccc32)cc1 (stereo not given)         75
2  CN(C)Cc1ccc2n1-c1ccccc1SC2(c1ccccc1)c1ccccc1         56
3  COc1ccc([C@@H]2Sc3ccccc3N(CCN(C)C)C(=O)[C@@H]2OC(C)=O)cc1 [DILTIAZEM]         78
4  O=C1CC[C@@H]2[C@@H](c3ccccc3)Sc3ccccc3N12         66
5  COc1ccc(C2(OC(C)=O)Sc3ccccc3-n3cccc32)cc1 (stereo not given)         71

---

targetOfAssay: Voltage-gated L-type calcium channel (Rattus norvegicus, UniProt P22002+Q02485+P27732)
protocolNotes: Inhibition of [3H]nitrendipine binding at L-type [Ca2+] channel in rat cortex homogenate by 50%.
endpoint: log10(IC50) (log10 of the value in nM)

> print(dat)
                                   molecule                             targetofassay  datavalue
1  CN(C)Cc1ccc2n1-c1cc(C(F)(F)F)ccc1SC2(c1ccccc1)c1ccccc1  Voltage-gated L-type calcium channel (Rattus norvegicus, UniProt P22002+Q02485+P27732)       2.03
2  Clc1cccc2c1SC(c1ccccc1)(c1ccccc1)c1cccn1-2  Voltage-gated L-type calcium channel (Rattus norvegicus, UniProt P22002+Q02485+P27732)       2.51
3  O=C1CC[C@@H]2[C@@H](c3ccccc3)Sc3ccccc3N12  Voltage-gated L-type calcium channel (Rattus norvegicus, UniProt P22002+Q02485+P27732)      -0.11
4  c1ccc(C2(c3ccccc3)Sc3ccccc3-n3cccc32)cc1  Voltage-gated L-type calcium channel (Rattus norvegicus, UniProt P22002+Q02485+P27732)       2.67
5  CC(=O)OC1(c2ccccc2)Sc2ccc(C(F)(F)F)cc2-n2cccc21 (stereo not given)  Voltage-gated L-type calcium channel (Rattus norvegicus, UniProt P22002+Q02485+P27732)       1.81
6  COc1ccc([C@H]2Sc3ccccc3N3C(=O)CC[C@H]23)cc1  Voltage-gated L-type calcium channel (Rattus norvegicus, UniProt P22002+Q02485+P27732)       0.64
7  Clc1ccc2c(c1)-n1cccc1C(c1ccccc1)(c1ccccc1)S2  Voltage-gated L-type calcium channel (Rattus norvegicus, UniProt P22002+Q02485+P27732)       3.64
8  COc1ccc(C2(c3ccc(OC)cc3)Sc3ccccc3-n3c(CN(C)C)ccc32)cc1  Voltage-gated L-type calcium channel (Rattus norvegicus, UniProt P22002+Q02485+P27732)       3.33
9  CCC(C)NCc1ccc2n1-c1ccccc1SC2c1ccc(OC)cc1 (stereo not given)  Voltage-gated L-type calcium channel (Rattus norvegicus, UniProt P22002+Q02485+P27732)       1.08

---

targetOfAssay: Voltage-gated L-type calcium channel (Rattus norvegicus, UniProt P22002+Q02485+P27732)
protocolNotes: Inhibition of [3H]nitrendipine binding at L-type [Ca2+] channel in rat cortex homogenate by 50%.
Consider the following compounds and their measured log10 IC50 readings.
endpoint: log10 IC50 (log10 of the value in µM)

> print(dat)
                                   compound    endpoint  datavalue
1  COc1ccc(C2Sc3ccccc3-n3c(CN(C)CCc4ccc(OC)c(OC)c4)ccc32)c(OC)c1 (stereo not drawn)  log10 IC50       0.20
2  COc1ccc(CCN(C)Cc2ccc3n2-c2ccccc2SC3c2ccccc2)cc1OC (stereo not drawn)  log10 IC50      -0.70
3  CC(=O)OC1(c2ccccc2)Sc2ccccc2-n2cccc21 (stereo not drawn)  log10 IC50       0.67
4  FC(F)(F)c1ccc2c(c1)-n1cccc1C(c1ccccc1)(c1ccccc1)S2  log10 IC50       0.31
5  CCC(C)NCc1ccc2n1-c1ccccc1SC2c1ccc(OC)cc1OC (stereo not drawn)  log10 IC50      -1.82
6  COc1ccc(C2Oc3ccccc3-n3c(CN(C)C)ccc32)cc1 (stereo not drawn)  log10 IC50       0.67
7  COc1ccc(C2(OC(C)=O)Sc3ccccc3-n3cccc32)cc1 (stereo not drawn)  log10 IC50      -1.52
8  CN(C)Cc1ccc2n1-c1cccc(Cl)c1SC2(c1ccccc1)c1ccccc1  log10 IC50      -1.09

---

Each item that follows carries a reported Ki.
targetOfAssay: Voltage-gated L-type calcium channel (Rattus norvegicus, UniProt P22002+Q02485+P27732)
protocolNotes: Calcium antagonistic activity by measuring [3H]nitrendipine displacement at calcium channel in rat cortex homogenate
Assay type: functional, tissue-based
endpoint: Ki

> print(dat)
                                   compound  datavalue
1  CCC(C)NCc1ccc2n1-c1ccccc1SC2c1ccc(OC)cc1 (centres undefined)     4.4 nM
2  COc1ccc(C2Sc3ccccc3-n3c(CN(C)CCc4ccc(OC)c(OC)c4)ccc32)c(OC)c1 (centres undefined)     740 nM
3  CCC(C)NCc1ccc2n1-c1ccccc1SC2c1ccc(OC)cc1OC (centres undefined)     5.5 nM
4  COc1ccc(CCN(C)Cc2ccc3n2-c2ccccc2SC3c2ccccc2)cc1OC (centres undefined)      74 nM

---

targetOfAssay: Voltage-gated L-type calcium channel (Rattus norvegicus, UniProt P22002+Q02485+P27732)
protocolNotes: Calcium antagonistic activity by measuring [3H]nitrendipine displacement at L-type [Ca2+] channel in rat cortex homogenate
Type: functional, tissue-based
Could you please mark rule met for values of Ki below 800 nM and rule not met for values at or above it?

> print(dat)
                                    compound                             targetofassay   answerlabel
 1  COc1ccc(C2Oc3ccccc3-n3c(CN(C)C)ccc32)cc1 (stereo not drawn)  Voltage-gated L-type calcium channel (Rattus norvegicus, UniProt P22002+Q02485+P27732)  rule not met
 2  O=C1CC[C@@H]2[C@@H](c3ccccc3)Sc3ccccc3N12  Voltage-gated L-type calcium channel (Rattus norvegicus, UniProt P22002+Q02485+P27732)      rule met
 3  Clc1ccc2c(c1)-n1cccc1C(c1ccccc1)(c1ccccc1)S2  Voltage-gated L-type calcium channel (Rattus norvegicus, UniProt P22002+Q02485+P27732)  rule not met
 4  CN(C)Cc1ccc2n1-c1cccc(Cl)c1SC2(c1ccccc1)c1ccccc1  Voltage-gated L-type calcium channel (Rattus norvegicus, UniProt P22002+Q02485+P27732)      rule met
 5  CC(=O)OC1(c2ccccc2)Sc2ccccc2-n2cccc21 (stereo not drawn)  Voltage-gated L-type calcium channel (Rattus norvegicus, UniProt P22002+Q02485+P27732)  rule not met
 6  COc1ccc([C@H]2Sc3ccccc3N3C(=O)CC[C@H]23)cc1  Voltage-gated L-type calcium channel (Rattus norvegicus, UniProt P22002+Q02485+P27732)      rule met
 7  Clc1cccc2c1SC(c1ccccc1)(c1ccccc1)c1cccn1-2  Voltage-gated L-type calcium channel (Rattus norvegicus, UniProt P22002+Q02485+P27732)      rule met
 8  c1ccc(C2(c3ccccc3)Sc3ccccc3-n3cccc32)cc1  Voltage-gated L-type calcium channel (Rattus norvegicus, UniProt P22002+Q02485+P27732)      rule met
 9  FC(F)(F)c1ccc2c(c1)-n1cccc1C(c1ccccc1)(c1ccccc1)S2  Voltage-gated L-type calcium channel (Rattus norvegicus, UniProt P22002+Q02485+P27732)      rule met
10  COc1ccc(C2(OC(C)=O)Sc3ccccc3-n3cccc32)cc1 (stereo not drawn)  Voltage-gated L-type calcium channel (Rattus norvegicus, UniProt P22002+Q02485+P27732)      rule met
11  CC(=O)OC1(c2ccccc2)Sc2ccc(C(F)(F)F)cc2-n2cccc21 (stereo not drawn)  Voltage-gated L-type calcium channel (Rattus norvegicus, UniProt P22002+Q02485+P27732)      rule met
12  CN(C)Cc1ccc2n1-c1cc(C(F)(F)F)ccc1SC2(c1ccccc1)c1ccccc1  Voltage-gated L-type calcium channel (Rattus norvegicus, UniProt P22002+Q02485+P27732)      rule met

---

targetOfAssay: Voltage-dependent L-type calcium channel subunit alpha-1C (Rattus norvegicus, UniProt P22002)
Sequence (P22002 whole entry): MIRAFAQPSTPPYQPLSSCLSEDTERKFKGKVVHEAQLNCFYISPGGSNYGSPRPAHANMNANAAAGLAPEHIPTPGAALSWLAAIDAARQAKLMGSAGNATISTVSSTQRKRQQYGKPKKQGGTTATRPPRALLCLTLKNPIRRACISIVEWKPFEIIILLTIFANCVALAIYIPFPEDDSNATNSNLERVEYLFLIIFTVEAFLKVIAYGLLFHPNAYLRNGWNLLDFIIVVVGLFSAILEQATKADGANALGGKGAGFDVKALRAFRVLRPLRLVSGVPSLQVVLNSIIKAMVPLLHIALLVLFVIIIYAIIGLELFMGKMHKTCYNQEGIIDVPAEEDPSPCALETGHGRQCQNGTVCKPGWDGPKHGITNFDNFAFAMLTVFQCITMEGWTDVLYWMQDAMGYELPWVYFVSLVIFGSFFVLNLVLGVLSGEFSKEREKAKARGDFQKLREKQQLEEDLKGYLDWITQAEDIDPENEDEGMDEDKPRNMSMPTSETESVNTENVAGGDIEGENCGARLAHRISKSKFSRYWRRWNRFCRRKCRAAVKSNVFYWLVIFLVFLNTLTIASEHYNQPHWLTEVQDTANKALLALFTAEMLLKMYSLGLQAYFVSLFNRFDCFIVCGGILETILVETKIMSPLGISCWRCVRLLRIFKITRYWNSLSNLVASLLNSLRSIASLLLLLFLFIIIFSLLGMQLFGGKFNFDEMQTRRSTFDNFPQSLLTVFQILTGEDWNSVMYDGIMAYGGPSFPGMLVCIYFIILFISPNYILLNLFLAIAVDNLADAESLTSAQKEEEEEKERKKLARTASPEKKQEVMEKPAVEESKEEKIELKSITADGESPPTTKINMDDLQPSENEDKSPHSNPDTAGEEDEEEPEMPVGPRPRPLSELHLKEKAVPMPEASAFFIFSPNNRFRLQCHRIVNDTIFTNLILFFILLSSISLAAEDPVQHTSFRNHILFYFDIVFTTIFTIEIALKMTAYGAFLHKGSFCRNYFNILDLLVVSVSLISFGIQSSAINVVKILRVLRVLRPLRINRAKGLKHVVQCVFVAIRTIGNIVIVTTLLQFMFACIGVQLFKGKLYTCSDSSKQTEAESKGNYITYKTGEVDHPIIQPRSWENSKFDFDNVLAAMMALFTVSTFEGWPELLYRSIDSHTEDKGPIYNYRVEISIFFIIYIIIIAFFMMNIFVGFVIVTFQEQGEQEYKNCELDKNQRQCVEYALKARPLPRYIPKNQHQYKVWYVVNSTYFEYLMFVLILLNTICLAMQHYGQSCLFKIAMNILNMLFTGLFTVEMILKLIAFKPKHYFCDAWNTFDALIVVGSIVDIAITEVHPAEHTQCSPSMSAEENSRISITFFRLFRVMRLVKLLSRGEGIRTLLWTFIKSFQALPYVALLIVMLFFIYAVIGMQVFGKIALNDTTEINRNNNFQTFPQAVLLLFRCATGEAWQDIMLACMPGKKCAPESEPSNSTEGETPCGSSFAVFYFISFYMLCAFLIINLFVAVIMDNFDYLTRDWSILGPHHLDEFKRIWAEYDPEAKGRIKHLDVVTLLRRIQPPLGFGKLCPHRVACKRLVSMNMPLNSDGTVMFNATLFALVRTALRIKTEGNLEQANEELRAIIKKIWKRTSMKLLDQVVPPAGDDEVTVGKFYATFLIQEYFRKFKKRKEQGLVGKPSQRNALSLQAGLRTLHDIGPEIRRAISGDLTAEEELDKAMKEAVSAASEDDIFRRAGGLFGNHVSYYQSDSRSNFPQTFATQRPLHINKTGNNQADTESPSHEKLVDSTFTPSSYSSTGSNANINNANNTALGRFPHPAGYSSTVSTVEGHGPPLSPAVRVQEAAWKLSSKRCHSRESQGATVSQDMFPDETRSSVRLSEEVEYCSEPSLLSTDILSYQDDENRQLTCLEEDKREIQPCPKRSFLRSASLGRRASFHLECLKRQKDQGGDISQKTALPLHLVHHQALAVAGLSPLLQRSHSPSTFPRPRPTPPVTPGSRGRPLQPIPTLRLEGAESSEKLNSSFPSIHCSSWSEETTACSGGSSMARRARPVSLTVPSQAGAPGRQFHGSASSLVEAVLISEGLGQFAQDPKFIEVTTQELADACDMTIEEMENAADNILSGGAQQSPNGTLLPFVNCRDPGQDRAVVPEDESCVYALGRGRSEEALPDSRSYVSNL
protocolNotes: Calcium antagonistic activity by measuring [3H]nitrendipine displacement from rat heart L-type [Ca2+] channel
Format: functional
# Ki per entry
endpoint: Ki (nM)

> print(dat)
                                   compound  unitlabel  datavalue
1  CCC(C)NCc1ccc2n1-c1ccccc1SC2c1ccc(OC)cc1OC (stereo unspecified)         nM        640
2  COc1ccc([C@H]2Sc3ccccc3N3C(=O)CC[C@H]23)cc1         nM         35
3  COc1ccc(C2Sc3ccccc3-n3c(CN(C)CCc4ccc(OC)c(OC)c4)ccc32)cc1 (stereo unspecified)         nM        8.3
4  COc1ccc(C2Sc3ccccc3-n3c(CN(C)C)ccc32)cc1 (stereo unspecified)         nM         53
5  CN(C)Cc1ccc2n1-c1cccc(Cl)c1SC2(c1ccccc1)c1ccccc1         nM         26
6  COc1ccc(C2Sc3ccccc3-n3c(CN(C)C)ccc32)c(OC)c1 (stereo unspecified)         nM        160
